# SYSTEM_NAME: 1-phosphatidylinositol 4,5-bisphosphate phosphodiesterase beta-3 (Homo sapiens)
# METHOD_DESCRIPTION: phospholipase C beta3 enzyme inhibition – biochemical, fluorescence, primary screen (AID 720704)
# TEST_SETTINGS: Purified PLC-beta3, fluorogenic substrate, at 12.2 µM
Among all 370,000 compounds or so, about 660 (0.18%) were called active. No stated cut-off is given here; in the data, active means inhibition above about 11%; inactive means the rest. The sample as a whole holds a higher share of actives than the screen did.
Reply using exactly one outcome from active, inactive

Input line: Record lookup: outcome of this test for c1ccc(CC2CCCCN2)cc1 (stereo not drawn) ?
Output line: inactive

Input line: Now try Cc1cc(C)cc(NC(=S)NC2CC3CCCC(C2)N3Cc2cccs2)c1 (stereo not drawn) .
Output line: inactive

Input line: Item: CCN1c2nc3c(C)cccn3c(=O)c2CC2(C(=O)N(C)C(=O)N(C)C2=O)C1C (stereo not drawn)
Output line: inactive

Input line: Repeat with CN(C)CCCN=Cc1c(O)n(Cc2ccco2)c(=O)[nH]c1=O
Output line: inactive

Input line: One more compound: CCCCn1c(O)c(C(CC)=NCc2ccco2)c(=O)[nH]c1=O
Output line: inactive

Input line: Another: CC(C)(C)[C@]1(O)C[C@@H]2OC(=O)C[C@@]23C(=O)O[C@@H]2OC(=O)[C@H](O)[C@]213
Output line: active

Input line: Now the same for CCC(=NCc1ccco1)c1c(O)n(Cc2ccccc2)c(=O)[nH]c1=O
Output line: active

Input line: COC(=O)[C@@H]1C(OC(=O)c2ccccc2)CC2CCC1N2C (stereo partly drawn) ?
Output line: inactive

Where do these numbers come from? They come from PubChem BioAssay AID720704.
